Here the recorded %Inh is given for each entry.
# Tested on: EPHA3
# Measurement Context: concentration: 1 μM,replicates: in singlicate; n = 1;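 further: KINOMEscan kinase panel screen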
Assay Endpoint: %Inh

[
  {
    "Molecule Smiles": "CNC(=O)c1ccccc1Sc1ccc2c(/C=C/c3ccccn3)n[nH]c2c1",
    "Test Target": "EPHA3",
    "Assay Endpoint": "%Inh",
    "Recorded Measurement": "0%"
  },
  {
    "Molecule Smiles": "C[C@@H]1CCN(C(=O)CC#N)C[C@@H]1N(C)c1ncnc2[nH]ccc12",
    "Test Target": "EPHA3",
    "Assay Endpoint": "%Inh",
    "Recorded Measurement": "0%"
  },
  {
    "Molecule Smiles": "Cc1cc2cn[nH]c2cc1-c1cccc2c(N)c(C(N)=O)nnc12",
    "Test Target": "EPHA3",
    "Assay Endpoint": "%Inh",
    "Recorded Measurement": "0%"
  },
  {
    "Molecule Smiles": "C[C@H]1Oc2cc(cnc2N)-c2c(nn(C)c2C#N)CN(C)C(=O)c2ccc(F)cc21",
    "Test Target": "EPHA3",
    "Assay Endpoint": "%Inh",
    "Recorded Measurement": "0%"
  },
  {
    "Molecule Smiles": "Cc1cc(C(=O)Nc2ccc(Oc3ccc4nc(NC(=O)C5CC5)cn4n3)cc2)nn1-c1ccccc1",
    "Test Target": "EPHA3",
    "Assay Endpoint": "%Inh",
    "Recorded Measurement": "0%"
  },
  {
    "Molecule Smiles": "CN(C)CCOc1ccc(-c2cc(-c3c[nH]nc3-c3ccccn3)ccn2)cc1",
    "Test Target": "EPHA3",
    "Assay Endpoint": "%Inh",
    "Recorded Measurement": "18%"
  },
  {
    "Molecule Smiles": "Cl.Cl.NC[C@H](Cc1ccc(C(F)(F)F)cc1)NC(=O)c1cc(Br)c(-c2ccnc3[nH]ccc23)s1",
    "Test Target": "EPHA3",
    "Assay Endpoint": "%Inh",
    "Recorded Measurement": "0%"
  },
  {
    "Molecule Smiles": "CC(C)N1C(=O)Cc2cc(Nc3ncc(C(F)(F)F)c(NCc4cccc(S(C)(=O)=O)c4)n3)ccc21",
    "Test Target": "EPHA3",
    "Assay Endpoint": "%Inh",
    "Recorded Measurement": "9%"
  }
]

====

# Tested on: ARK5
# Construct: gene NUAK1
# Measurement Context: concentration: 1 μM,replicates: in singlicate; n = 1
Here the recorded %Inh is given for each entry.
Assay Endpoint: %Inh (%)

[
  {
    "Compound": "O=C(NCCCN1CCOC1=O)c1cnc(NCc2cc(Cl)ccc2Cl)nc1NC1CCCC1",
    "Result Units": "%",
    "Recorded Measurement": 9
  },
  {
    "Compound": "O=C(NCCNc1ccnc(NCc2ccc(F)cc2)n1)c1cc2ccccc2s1 [GSK1379944]",
    "Result Units": "%",
    "Recorded Measurement": 0
  },
  {
    "Compound": "NC(=O)c1cc(-c2ccccc2)cc2c(C3CCNCC3)c[nH]c12 [GSK301362]",
    "Result Units": "%",
    "Recorded Measurement": 31
  },
  {
    "Compound": "Cc1occc1-c1nc(N)c(OC[C@@H](N)Cc2c[nH]c3ccccc23)cc1-c1cc2c(C)n[nH]c2cn1 [GSK1660450]",
    "Result Units": "%",
    "Recorded Measurement": 20
  },
  {
    "Compound": "CN(C)CC(O)COc1ccc(Nc2nccc(-c3cnn4nc(N5CCOCC5)ccc34)n2)cc1 (centres unmarked) [GW767488]",
    "Result Units": "%",
    "Recorded Measurement": 25
  },
  {
    "Compound": "Cl.Oc1cc(-c2nc(-c3ccccc3)[nH]c2-c2ccncc2)ccc1Cl [SB-386023]",
    "Result Units": "%",
    "Recorded Measurement": 0
  },
  {
    "Compound": "CCN(CC)CCCCNc1ncc2cc(-c3c(Cl)cccc3Cl)c(NC(=O)NC(C)(C)C)nc2n1",
    "Result Units": "%",
    "Recorded Measurement": 0
  },
  {
    "Compound": "Cc1cc2cn[nH]c2cc1-c1cccc2c(N)c(C(N)=O)nnc12",
    "Result Units": "%",
    "Recorded Measurement": 0
  },
  {
    "Compound": "Cl.Cl.Nc1nc(-c2ccc3c(N)n[nH]c3c2)cc(N2CCCC(NC(=O)c3ccccc3)C2)n1 (centres unmarked) [GSK2286775]",
    "Result Units": "%",
    "Recorded Measurement": 0
  },
  {
    "Compound": "CCN(CC)CCOc1ccc(Nc2ncc3cc(-c4c(Cl)cccc4Cl)c(=O)n(C)c3n2)cc1 [SB-601273]",
    "Result Units": "%",
    "Recorded Measurement": 31
  },
  {
    "Compound": "CCn1c(-c2nonc2N)nc2c(C#CC(C)(C)O)nc(OCCN)cc21.Cl.Cl [GSK902056]",
    "Result Units": "%",
    "Recorded Measurement": 17
  },
  {
    "Compound": "C[C@@H](Oc1cc(-c2cnn(C3CCNCC3)c2)cnc1N)c1c(Cl)ccc(F)c1Cl",
    "Result Units": "%",
    "Recorded Measurement": 89
  },
  {
    "Compound": "COc1ccc(C[C@@H](CN)NC(=O)c2cc(Br)c(-c3ccnc4[nH]ccc34)s2)cc1.Cl.Cl [GSK1389063]",
    "Result Units": "%",
    "Recorded Measurement": 96.8
  },
  {
    "Compound": "Cc1ccc2c(-c3ccncc3)c(-c3ccc(F)cc3)nn2c1.Cl [GW461484]",
    "Result Units": "%",
    "Recorded Measurement": 13
  },
  {
    "Compound": "CC(C)Nc1cc(-c2ccc3c(N)n[nH]c3c2)nc(N)n1 [GSK2221681]",
    "Result Units": "%",
    "Recorded Measurement": 0
  },
  {
    "Compound": "Cc1ccc(-n2nc(C(C)(C)C)cc2NC(=O)Nc2ccc(OCCN3CCOCC3)c3ccccc23)cc1 [GW839464]",
    "Result Units": "%",
    "Recorded Measurement": 0
  },
  {
    "Compound": "Cl.Cl.NC[C@H](Cc1ccc(C(F)(F)F)cc1)NC(=O)c1cc(Br)c(-c2ccnc3[nH]ccc23)s1 [GSK1487252]",
    "Result Units": "%",
    "Recorded Measurement": 37
  }
]
